- method description: Single intravenous dose pharmacokinetic study
- assay conditions: intact conjugate; male ICR mice, 5 mg/kg intravenous
readout label: AUC(0-24 hr) Conjugate (ng·h/mL)
The response must be a number in ng·h/mL with no trailing unit.

Tell me the measured AUC(0-24 hr) Conjugate of COc1cc2cc(c1Cl)N(C)C(=O)C[C@H](OC(=O)[C@H](C)N(C)C(=O)CCSSCCC(=O)NCc1ccc(CNC(=O)COCCOCCOCC(=O)N(CCCCOc3cc(CN(Cc4ccccn4)Cc4ccccn4)cc(CN(Cc4ccccn4)Cc4ccccn4)c3)Cc3ccc(-c4ccccc4)cc3)cc1)[C@]1(C)O[C@H]1[C@H](C)[C@@H]1C[C@@](O)(NC(=O)O1)[C@H](OC)/C=C\C=C(/C)C2.O=[N+]([O-])[O-].O=[N+]([O-])[O-].O=[N+]([O-])[O-].O=[N+]([O-])[O-].[Zn+2].[Zn+2] , please.
39025

====

- method description: Single intravenous dose pharmacokinetic study
- assay conditions: released payload 14; male ICR mice, 5 mg/kg intravenous of conjugate
- Method: Six-week-old male ICR mice, from the Biolasco Taiwan, were divided into groups of three and dosed at 5 mg/kg intravenously. Blood samples were drawn from each animal at time points of 0.003, 0.083, 0.25, 0.5, 1, 2, 4, 6, 8, and 24 h and stored on ice (0–4 °C). […] Plasma samples were analyzed by liquid chromatography tandem mass spectrometry (LC/MS/MS). […]
readout label: AUC(0-24 hr) Drug
Answer format: value, then unit.

Find the recorded AUC(0-24 hr) Drug belonging to CCCCCC(=O)Nc1cccc(CN(Cc2cc(CN(Cc3ccccn3)Cc3cccc(NC(=O)CCCCC)n3)cc(OCCCCN(Cc3ccc(-c4ccccc4)cc3)C(=O)COCCOCCOCC(=O)NCc3ccc(CNC(=O)CCSSCCC(=O)N(C)[C@@H](C)C(=O)O[C@H]4CC(=O)N(C)c5cc(cc(OC)c5Cl)C/C(C)=C/C=C\[C@@H](OC)[C@@]5(O)C[C@H](OC(=O)N5)[C@@H](C)[C@@H]5O[C@@]45C)cc3)c2)Cc2ccccn2)n1.O=[N+]([O-])[O-].O=[N+]([O-])[O-].O=[N+]([O-])[O-].O=[N+]([O-])[O-].[Zn+2].[Zn+2] [Compound 40a] and report it.
305 ng·h/mL

====

- method description: Single intravenous dose pharmacokinetic study
- assay conditions: male ICR mice, 5 mg/kg intravenous, n = 3
log10(Vss) values by entry
Heads up, the numbers here are log10 of Vss in L/kg units.

Example entries begin here.
compound	log10(Vss)
CCCCCC(=O)Nc1cccc(CN(Cc2cc(CN(Cc3ccccn3)Cc3cccc(NC(=O)CCCCC)n3)cc(OCCCCN(Cc3ccc(C(=O)NCCOCCOCCNC(=O)CCSSC(C)(C)CCC(=O)N(C)C(C)C(=O)OC4CC(=O)N(C)c5cc(cc(OC)c5Cl)CC(C)=CC=CC(OC)C5(O)CC(OC(=O)N5)C(C)C5OC45C)cc3)C(=O)C3(c4ccc(Cl)cc4)CCCCC3)c2)Cc2ccccn2)n1.O=[N+]([O-])[O-].O=[N+]([O-])[O-].O=[N+]([O-])[O-].O=[N+]([O-])[O-].[Zn+2].[Zn+2] (stereo not shown)	-0.70
COc1cc2cc(c1Cl)N(C)C(=O)CC(OC(=O)C(C)N(C)C(=O)CCSSCCC(=O)NCCCCOc1cc(CN(Cc3ccccn3)Cc3ccccn3)cc(CN(Cc3ccccn3)Cc3ccccn3)c1)C1(C)OC1C(C)C1CC(O)(NC(=O)O1)C(OC)C=CC=C(C)C2.O=[N+]([O-])[O-].O=[N+]([O-])[O-].O=[N+]([O-])[O-].O=[N+]([O-])[O-].[Zn+2].[Zn+2] (stereo not shown) [Compound 27a]	0.41
CCCCCC(=O)Nc1cccc(CN(Cc2cc(CN(Cc3ccccn3)Cc3cccc(NC(=O)CCCCC)n3)cc(OCCCCN(Cc3ccc(-c4ccccc4)cc3)C(=O)COCCOCCOCC(=O)NCc3ccc(CNC(=O)CCC(C)(C)SSCCC(=O)N(C)[C@@H](C)C(=O)O[C@H]4CC(=O)N(C)c5cc(cc(OC)c5Cl)C/C(C)=C/C=C\[C@@H](OC)[C@@]5(O)C[C@H](OC(=O)N5)[C@@H](C)[C@@H]5O[C@@]45C)cc3)c2)Cc2ccccn2)n1.O=[N+]([O-])[O-].O=[N+]([O-])[O-].O=[N+]([O-])[O-].O=[N+]([O-])[O-].[Zn+2].[Zn+2] [Compound 40b]	-0.70
COc1cc2cc(c1Cl)N(C)C(=O)C[C@H](OC(=O)[C@H](C)N(C)C(=O)CCSSCCC(=O)NCc1ccc(CNC(=O)COCCOCCOCC(=O)N(CCCCOc3cc(CN(Cc4ccccn4)Cc4ccccn4)cc(CN(Cc4ccccn4)Cc4ccccn4)c3)Cc3ccc(-c4ccccc4)cc3)cc1)[C@]1(C)O[C@H]1[C@H](C)[C@@H]1C[C@@](O)(NC(=O)O1)[C@H](OC)/C=C\C=C(/C)C2.O=[N+]([O-])[O-].O=[N+]([O-])[O-].O=[N+]([O-])[O-].O=[N+]([O-])[O-].[Zn+2].[Zn+2]	-0.30
COc1cc2cc(c1Cl)N(C)C(=O)C[C@H](OC(=O)[C@H](C)N(C)C(=O)CCSSc1ccc(C(=O)NCCCCOc3cc(CN(Cc4ccccn4)Cc4ccccn4)cc(CN(Cc4ccccn4)Cc4ccccn4)c3)cc1)[C@]1(C)O[C@H]1[C@H](C)[C@@H]1C[C@@](O)(NC(=O)O1)[C@H](OC)/C=C\C=C(/C)C2.O=[N+]([O-])[O-].O=[N+]([O-])[O-].O=[N+]([O-])[O-].O=[N+]([O-])[O-].[Zn+2].[Zn+2] [Compound 27b]	1.92

# input compound: CCCCCC(=O)Nc1cccc(CN(Cc2cc(CN(Cc3ccccn3)Cc3cccc(NC(=O)CCCCC)n3)cc(OCCCCNC(=O)COCCOCCOCC(=O)NCc3ccc(CNC(=O)CCSSCCC(=O)N(C)[C@@H](C)C(=O)O[C@H]4CC(=O)N(C)c5cc(cc(OC)c5Cl)C/C(C)=C/C=C\[C@@H](OC)[C@@]5(O)C[C@H](OC(=O)N5)[C@@H](C)[C@@H]5O[C@@]45C)cc3)c2)Cc2ccccn2)n1.O=[N+]([O-])[O-].O=[N+]([O-])[O-].O=[N+]([O-])[O-].O=[N+]([O-])[O-].[Zn+2].[Zn+2] ; wanted: its log10(Vss)
-0.40

Quick one: log10(Vss) for CCCCCC(=O)Nc1cccc(CN(Cc2cc(CN(Cc3ccccn3)Cc3cccc(NC(=O)CCCCC)n3)cc(OCCCCNC(=O)CCSSCCC(=O)N(C)[C@@H](C)C(=O)O[C@H]3CC(=O)N(C)c4cc(cc(OC)c4Cl)C/C(C)=C/C=C\[C@@H](OC)[C@@]4(O)C[C@H](OC(=O)N4)[C@@H](C)[C@@H]4O[C@@]34C)c2)Cc2ccccn2)n1.O=[N+]([O-])[O-].O=[N+]([O-])[O-].O=[N+]([O-])[O-].O=[N+]([O-])[O-].[Zn+2].[Zn+2] ?
-0.30
